Record form. Attribute: peptide exchange yield. Fill in for each entry.
target: T1, HLA-A*01:01 (human); assay: UV-exchange b2m ELISA; exchange-yield grade
T1 construct: also called peptide-receptive MHC molecules

Given the entry `LLDEGAMLLY` , report its measured peptide exchange yield.
> 75%

Given the entry `VLLDEGAMLLY` , report its measured peptide exchange yield.
20 to 50%

Given the entry `VMEQSAGIMY` , report its measured peptide exchange yield.
20 to 50%

Given the entry `QLDSNRLTY` , report its measured peptide exchange yield.
50 to 75%

Given the entry `RWEKTDLTY` , report its measured peptide exchange yield.
20 to 50%

Respectfully, I request peptide exchange yield for each entry included below.
1. ETIRSVGYY
2. TVTGAEQIQY
3. DMDEEIEAEY

["50 to 75%", "20 to 50%", "20 to 50%"]

Data credit: patent US20180222961A1
